Source of measurements: PubChem BioAssay

- System: Lefty1
- Measurement notes: Lefty1 binders on small-molecule microarrays, primary screen, biochemical, small-molecule microarray, 635/667 nm fluorescence (AID 1139)
- Condition parameters: small-molecule microarray binding, fluorescence 635/667; higher = more signal
Classes (composite z-score): lower range: < -0.02; middle range: ≥ -0.02 and < 0.7; upper range: ≥ 0.7

CCCCCCc1nc(-c2ccc(OC)nc2)cc2c1[Si](C(C)C)(C(C)C)OC2: middle range
Cc1ccc(S(=O)(=O)N2[C@@H](c3ccccc3)C(C(=O)O)=CC[C@H]2c2ccc(C#N)cc2)cc1: lower range
O=c1cccc(-c2ccccc2C(F)(F)F)o1: lower range
COCCOC(=O)N1C(=O)[C@@]2(c3cc(C#CC4(O)CCCCCC4)ccc31)[C@H](C(=O)NC[C@H](O)c1ccccc1)[C@H]1C(=O)O[C@H](c3ccccc3)[C@H](c3ccccc3)N1[C@@H]2c1ccc(O)cc1: middle range
COC(=O)[C@@]1(CCS(=O)(=O)c2ccccc2)N=C(c2ccc(OCCCO)cc2)O[C@H]1c1ccccc1N=[N+]=[N-]: middle range

## Input Please classify: `COCCOC(=O)N1C(=O)[C@@]2(c3cc(C#CCC(C(=O)OC)C(=O)OC)ccc31)[C@H](C(=O)N1CCCCCCC1)[C@H]1C(=O)O[C@H](c3ccccc3)[C@H](c3ccccc3)N1[C@@H]2c1ccccc1OCCO`
## Output upper range

## Input Please classify: COc1cc2c(cc1O)C(c1ccc(CN3CCCC3)cc1)N(Cc1ccc([N+](=O)[O-])o1)CC2 (stereo not given)
## Output lower range
